Where do the numbers come from? From patent US20190064177A1.

molecular target: Diaphorase; experiment: peptide array, 10 uM labeled diaphorase, with FAD
Label 1.0 when fluorescence < 40000; otherwise 0.0.

Example entries begin here.
binder	assigned.label
RLYPQGYGGSG	0.0
LKQLFLEGGSG	1.0
AFYGLELGGSG	1.0
RFKYPLDGGSG	1.0
FQFGKVVSDGSG	1.0

Does the reported fluorescence of the following binder sit strictly below 40000? WLDLGVFPYQHLGSG 1.0

Does the reported fluorescence of the following binder sit strictly below 40000? FGKLYQLYNDGSG 1.0

Does the reported fluorescence of the following binder sit strictly below 40000? YRFAQYKGQKDGSG 1.0

Does the reported fluorescence of the following binder sit strictly below 40000? RWSFPAKGGSG 0.0

Does the reported fluorescence of the following binder sit strictly below 40000? WRGFKFADGGSG 1.0

Does the reported fluorescence of the following binder sit strictly below 40000? RQYQKHSYAKFSGSG 1.0
